Tested Target: His-tagged human recombinant kinase full-length Akt1 (Homo sapiens (Human))
Protocol Details: Akt1 kinase assay (TR-FRET)
Condition Summary: 10 μM ATP; read-out: Akt1, median IC50

- Smiles Data: "NC1(c2ccc(-c3nc4ccc(O)cn4c3-c3ccccc3)cc2)CCC1"
  IC50 / nM: 303
- Smiles Data: "NC1(c2ccc(-c3nc4cc(C5CC5)ccn4c3-c3ccccc3)cc2)CCC1"
  IC50 / nM: 1640
- Smiles Data: "NC1(c2ccc(-c3nc4cc(C(=O)N5CCCC5)ccn4c3-c3ccccc3)cc2)CCC1"
  IC50 / nM: 19400
- Smiles Data: "NC1(c2ccc(-c3nc4ccc(-c5ncc[nH]5)cn4c3-c3ccccc3)cc2)CCC1"
  IC50 / nM: 321
- Smiles Data: "NC1(c2ccc(-c3nc4ccc(C(=O)NO)cn4c3-c3ccccc3)cc2)CCC1"
  IC50 / nM: 257
- Smiles Data: "NC1(c2ccc(-c3nc4ccc(-c5cccnc5O)cn4c3-c3ccccc3)cc2)CCC1"
  IC50 / nM: 1510
- Smiles Data: "NC1(c2ccc(-c3nc4c(-c5cccc(F)c5)cccn4c3-c3ccccc3)cc2)CCC1"
  IC50 / nM: 208
- Smiles Data: "COc1ccc2nc(-c3ccc(C4(N)CCC4)cc3)c(-c3ccccc3)n2c1"
  IC50 / nM: 36

* * *

Tested Target: His-tagged human recombinant kinase full-length Akt1 (Homo sapiens (Human), UniProt P31749)
Sequence (P31749 whole entry): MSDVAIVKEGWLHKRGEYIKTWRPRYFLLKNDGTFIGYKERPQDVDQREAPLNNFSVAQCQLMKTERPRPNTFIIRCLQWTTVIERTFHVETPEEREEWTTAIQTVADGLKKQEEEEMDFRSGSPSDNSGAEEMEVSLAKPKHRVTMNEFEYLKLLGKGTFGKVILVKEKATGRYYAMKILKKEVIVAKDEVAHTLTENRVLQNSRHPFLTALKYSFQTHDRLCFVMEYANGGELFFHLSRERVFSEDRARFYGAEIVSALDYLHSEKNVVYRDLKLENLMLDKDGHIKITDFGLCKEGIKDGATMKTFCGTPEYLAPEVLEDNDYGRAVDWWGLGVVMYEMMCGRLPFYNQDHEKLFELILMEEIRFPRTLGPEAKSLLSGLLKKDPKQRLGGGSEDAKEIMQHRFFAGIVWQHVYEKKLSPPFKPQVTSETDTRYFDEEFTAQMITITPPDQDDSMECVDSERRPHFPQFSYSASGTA
Protocol Details: Akt1 kinase assay (TR-FRET)
Condition Summary: 10 μM ATP; read-out: Akt1, median IC50
pIC50: −log10 of the molar value.
Mark No for pIC50 values under 6, and Yes for everything at or above.

- Compound: "NC(=O)COc1ccn2c(-c3ccccc3)c(-c3ccc(C4(N)CCC4)cc3)nc2c1 [Example 9-1]"
  Label: "Yes"
- Compound: "Cc1cc(-c2cc(C)c3nc(-c4ccc(C5(N)CCC5)cc4)c(-c4ccccc4)n3c2)[nH]n1 [Example 2-105]"
  Label: "Yes"
- Compound: "Cc1ccc2nc(-c3ccc(C4(N)CCC4)cc3)c(-c3ccccc3)n2c1 [Example 2-7]"
  Label: "Yes"
- Compound: "NC1(c2ccc(-c3nc4nc(OCCN5CCCC5=O)ccn4c3-c3ccccc3)cc2)CCC1 [Example 2-64]"
  Label: "No"
- Compound: "NC1(c2ccc(-c3nc4ccc(-c5ccncc5)cn4c3-c3ccccc3)cc2)CCC1 [Example 2-136]"
  Label: "Yes"
- Compound: "NC1(c2ccc(-c3nc4ccc(C(=O)O)cn4c3-c3ccccc3)cc2)CCC1 [Example 2-51]"
  Label: "Yes"

* * *

# response vs control in vivo at 50 mg/kg per record follows
Test system: p-AKT S473 in PC3 human prostate tumours
Protocol Details: In vivo xenograft mechanism of action study
Parameters: species or system athymic nude mice
Condition Summary: Mus musculus, po; PC3 tumours in nude mice, once 50 mg/kg p.o., 5 hours post treatment; read-out: P-AKT % relative to control at 5 hours

- Molecule: "NC(=O)c1ccc2nc(-c3ccc(C4(N)CCC4)cc3)c(-c3ccccc3)n2c1 [Example 2-18]"
  Tested Target: "p-AKT S473 in PC3 human prostate tumours"
  response vs control in vivo at 50 mg/kg (%): 7.7
- Molecule: "CC(=O)c1ccc2nc(-c3ccc(C4(N)CCC4)cc3)c(-c3ccccc3)n2c1 [Example 2-144]"
  Tested Target: "p-AKT S473 in PC3 human prostate tumours"
  response vs control in vivo at 50 mg/kg (%): 8
- Molecule: "Cc1c(Cl)cn2c(-c3ccccc3)c(-c3ccc(C4(N)CCC4)cc3)nc2c1Br [Example 2-81]"
  Tested Target: "p-AKT S473 in PC3 human prostate tumours"
  response vs control in vivo at 50 mg/kg (%): 69.6
- Molecule: "NC(=O)c1cccn2c(-c3ccccc3)c(-c3ccc(C4(N)CCC4)cc3)nc12 [Example 6-0]"
  Tested Target: "p-AKT S473 in PC3 human prostate tumours"
  response vs control in vivo at 50 mg/kg (%): 6
- Molecule: "COc1cc(Br)cn2c(-c3ccccc3)c(-c3ccc(C4(N)CCC4)cc3)nc12 [Example 2-52]"
  Tested Target: "p-AKT S473 in PC3 human prostate tumours"
  response vs control in vivo at 50 mg/kg (%): 47.9
- Molecule: "NC1(c2ccc(-c3nc4cc(-c5ncc[nH]5)ccn4c3-c3ccccc3)cc2)CCC1 [Example 2-114]"
  Tested Target: "p-AKT S473 in PC3 human prostate tumours"
  response vs control in vivo at 50 mg/kg (%): 57.2
- Molecule: "COc1cc(Cl)cn2c(-c3ccccc3)c(-c3ccc(C4(N)CCC4)cc3)nc12 [Example 2-145]"
  Tested Target: "p-AKT S473 in PC3 human prostate tumours"
  response vs control in vivo at 50 mg/kg (%): 38
- Molecule: "Cc1cc(-c2ccn[nH]2)c2nc(-c3ccc(C4(N)CCC4)cc3)c(-c3ccccc3)n2c1 [Example 2-92]"
  Tested Target: "p-AKT S473 in PC3 human prostate tumours"
  response vs control in vivo at 50 mg/kg (%): 22
- Molecule: "NC(=O)c1ccn2c(-c3ccccc3)c(-c3ccc(C4(N)CCC4)cc3)nc2c1 [Example 2-41]"
  Tested Target: "p-AKT S473 in PC3 human prostate tumours"
  response vs control in vivo at 50 mg/kg (%): 8.8
- Molecule: "NC(=O)c1cc(Cl)c2nc(-c3ccc(C4(N)CCC4)cc3)c(-c3ccccc3)n2c1 [Example 6-1]"
  Tested Target: "p-AKT S473 in PC3 human prostate tumours"
  response vs control in vivo at 50 mg/kg (%): 7.5
- Molecule: "Cc1cc(C(N)=O)c2nc(-c3ccc(C4(N)CCC4)cc3)c(-c3ccccc3)n2c1 [Example 2-96]"
  Tested Target: "p-AKT S473 in PC3 human prostate tumours"
  response vs control in vivo at 50 mg/kg (%): 11.4
- Molecule: "COc1cc(C(N)=O)cn2c(-c3ccccc3)c(-c3ccc(C4(N)CCC4)cc3)nc12 [Example 1-13]"
  Tested Target: "p-AKT S473 in PC3 human prostate tumours"
  response vs control in vivo at 50 mg/kg (%): 152
- Molecule: "Cc1cc(-c2cn[nH]c2)c2nc(-c3ccc(C4(N)CCC4)cc3)c(-c3ccccc3)n2c1 [Example 2-93]"
  Tested Target: "p-AKT S473 in PC3 human prostate tumours"
  response vs control in vivo at 50 mg/kg (%): 79.2
- Molecule: "NC1(c2ccc(-c3nc4c(F)cc(F)cn4c3-c3ccccc3)cc2)CCC1 [Example 2-75]"
  Tested Target: "p-AKT S473 in PC3 human prostate tumours"
  response vs control in vivo at 50 mg/kg (%): 6.2
- Molecule: "Cc1cc(C)c2nc(-c3ccc(C4(N)CCC4)cc3)c(-c3ccccc3)n2c1 [Example 2-73]"
  Tested Target: "p-AKT S473 in PC3 human prostate tumours"
  response vs control in vivo at 50 mg/kg (%): 9.3
- Molecule: "Cc1cc(-c2cccnc2)c2nc(-c3ccc(C4(N)CCC4)cc3)c(-c3ccccc3)n2c1 [Example 2-90]"
  Tested Target: "p-AKT S473 in PC3 human prostate tumours"
  response vs control in vivo at 50 mg/kg (%): 53.7
